Origin of measurements: patent US9492460B2

Target: bromodomain BRD4 (44-168), BRD4 (333-460), and BRD4 (1-477 or 44-460) (Homo sapiens, UniProt O60885)
Construct: BRD4(44-168), BRD4(333-460), BRD4(44-460), BRD4(1-477), O60885-1; fused on or other part: N-terminal BirA biotinylation motif, biotinylated; The TVMV-cleavable His6 tag is removed, except in some BRD4(44-460) runs detected with anti-His terbium cryptate
Experiment: Time Resolved Fluorescence Resonance Energy Transfer (TR-FRET) binding assay
Conditions: one of the FRET assays described
readout: IC50

# count of solved cases: 2
>>> df
                                   compound  readout  valueobserved
0  Cc1noc(C)c1-c1cc(C(N)=O)c2c3cc(C(=O)N4COCC4(C)C)ccc3n(Cc3ccccc3)c2c1     IC50        < 50 nM
1  COC(=O)c1ccc2c3c(C(N)=O)cc(-c4c(C)noc4C)cc3n(C(c3ccccc3)c3ccccc3)c2c1     IC50        < 50 nM

# input compound: COCCn1c2ccc(C(=O)N3CC(C)OC(C)C3)cc2c2ccc(-c3c(C)noc3C)cc21 (stereo not shown) ; wanted: its IC50 < 500 nM

Likewise for Cc1noc(C)c1-c1cc(C(N)=O)c2c3cc(C(=O)N4CC(C)OC(C)C4)ccc3n(Cc3ccc(Cl)cc3)c2c1 (stereo not shown) ? < 50 nM
